Taken from ChEMBL document CHEMBL4689842.

Test system: U2OS
TEST_METHOD_NOTES: Multiplex assay against U2OS
Assay type: toxicity, cell-based
ASSAY_CONTEXT: human, 24 h, 10 µM, compound concentration 10 uM, replicate 1
MEASURED_METRIC: Population Membrane Permeable-Phenotype (%)
Kindly answer with a numeric value in %, unit omitted.

Item CC(C)NCC(O)COc1ccc(CCOCC2CC2)cc1.Cl (configuration not stated) [BETAXOLOL HYDROCHLORIDE] has what recorded Population Membrane Permeable-Phenotype (%)? 7

Quick check: Population Membrane Permeable-Phenotype (%) of COc1ncc(-c2ccc3nccc(-c4ccnnc4)c3c2)cc1NS(=O)(=O)c1ccc(F)cc1F ? 17

What does the record list as Population Membrane Permeable-Phenotype (%) for Cc1nc(-c2ccc(-c3ccc(C(=O)N4CCc5cc6c(cc54)C4(CCN(C)CC4)CO6)cc3)c(C)c2)no1 ? 84

Would you mind telling me what Population Membrane Permeable-Phenotype (%) value was observed for Cn1c(-c2csc(C3CCN(CC4=NC5N=CC=CC5N4)CC3)n2)nc2ccccc21 (configuration not stated) ? 10

Fill in: Population Membrane Permeable-Phenotype (%) of Cc1[nH]c(/C=C2\C(=O)Nc3ccc(S(=O)(=O)N(C)c4cccc(Cl)c4)cc32)c(C)c1C(=O)N1CCN(C)CC1 is ___ 46

Consider the compound CN(C)C(=O)N[C@H]1CC[C@H](CCN2CCN(c3cccc(Cl)c3Cl)CC2)CC1.Cl [CARIPRAZINE HYDROCHLORIDE] and give its measured Population Membrane Permeable-Phenotype (%). 28

Which Population Membrane Permeable-Phenotype (%) value is on record for CN1CCCC(n2nc(Cc3ccc(Cl)cc3)c3ccccc3c2=O)CC1.Cl (configuration not stated) [AZELASTINE HYDROCHLORIDE] ? 95

###

Tested on: U2OS
TEST_METHOD_NOTES: Multiplex assay against U2OS
Assay type: toxicity, cell-based
ASSAY_CONTEXT: human, 12 h, 10 µM, compound concentration 10 uM, replicate 2
MEASURED_METRIC: Total Cell Count
Response field accepts a number only; no unit should be typed.

# lookup: Total Cell Count of CNc1nc(NCc2ccc(NS(C)(=O)=O)cc2Cl)cc(-c2ccccn2)n1 56

Requested read-out: Total Cell Count. Entry: CC(C)NCC(O)COc1ccc(CCOCC2CC2)cc1.Cl (stereo not drawn) [BETAXOLOL HYDROCHLORIDE] 107

Data request, read-out Total Cell Count, for CN(C)C(=O)N[C@H]1CC[C@H](CCN2CCN(c3cccc(Cl)c3Cl)CC2)CC1.Cl [CARIPRAZINE HYDROCHLORIDE] 79

For the compound shown here, CN1CCC[C@@H]1CCO[C@](C)(c1ccccc1)c1ccc(Cl)cc1.O=C(O)/C=C/C(=O)O [CLEMASTINE FUMARATE] , give the reported Total Cell Count. 46

Can you look up the measured Total Cell Count of CC[C@H](C)C(=O)O[C@H]1C[C@@H](C)C=C2C=C[C@H](C)[C@H](CC[C@@H]3C[C@@H](O)CC(=O)O3)[C@H]21 [LOVASTATIN] for me? 54

Quick one: Total Cell Count for CN(C)CC#Cc1ccc(OCCCc2sc(N3CCc4cccc(C(=O)Nc5nc6ccccc6s5)c4C3)nc2C(=O)O)c(F)c1 [A-1155463] ? 133

Which Total Cell Count value belongs to CN1CCN(c2ccc(OC(F)(F)F)c(Nc3ncc4c(n3)-c3c(c(C(N)=O)nn3CCO)CC4)c2)CC1 [ONVANSERTIB] ? 61

Look at this compound and give its reported Total Cell Count. COc1cc(-n2cnc3cc(-c4ccc(Cl)cc4)sc3c2=O)ccc1OCCN1CCCC1 75

Using the record for Cc1cc(C)cc(-c2cnc3cc(Cl)c(-c4cccc(O)c4)cc3c2OCCCN)c1 , report its Total Cell Count. 60

Field request: Total Cell Count | item: Cc1nc(-c2cn3c(n2)-c2ccc(-c4cnn(C(C)(C)C(N)=O)c4)cc2OCC3)n(C(C)C)n1 [TASELISIB] 65

Record request: Total Cell Count value, item COc1ncc(-c2ccc3nccc(-c4ccnnc4)c3c2)cc1NS(=O)(=O)c1ccc(F)cc1F [OMIPALISIB] 77

For the compound shown here, CCN(CC)CCCCNc1ncc2cc(-c3cc(OC)cc(OC)c3)c(NC(=O)NC(C)(C)C)nc2n1 [PD-173074] , give the reported Total Cell Count. 129

Reported Total Cell Count for CN1CCCC(n2nc(Cc3ccc(Cl)cc3)c3ccccc3c2=O)CC1.Cl (stereo not drawn) [AZELASTINE HYDROCHLORIDE] : what is it? 96

What does the record list as Total Cell Count for c1cn2cc(-c3ccc4cn[nH]c4c3)nc(Nc3ccc(N4CCOCC4)cc3)c2n1 [ENTOSPLETINIB] ? 56

I'd like to know its Total Cell Count. The compound in question is COc1cccc([C@@H](C)NCCCc2ccccc2Cl)c1.Cl [TECALCET HYDROCHLORIDE] 83

// query Total Cell Count value for entry C=CC(=O)Nc1cc2c(Nc3ccc(F)c(Cl)c3)ncnc2cc1OCCCN1CCOCC1.Cl.Cl [CANERTINIB DIHYDROCHLORIDE] 122

Looking for the measured Total Cell Count of Cc1csc2c(N[C@@H](C)CN3CCN(S(=O)(=O)c4ccc(Cl)c(Cl)c4)CC3)ncnc12 , can you help? 60

Looking for the measured Total Cell Count of CC(C)(O)CNc1ncc(-c2ccnc(Nc3ccnc(Cl)c3)n2)c(CC2CC2)n1 , can you help? 93

Returns the measured Total Cell Count for the input compound. Input: C=CC(=O)Nc1cccc(C(=O)Nc2ccc(Nc3cc(-c4[nH]c(SC)nc4C)ccn3)cc2)c1 78

Any idea what Total Cell Count was measured for O=C1NCN(c2ccccc2)C12CCN(CCCOc1ccc(F)cc1)CC2 [SPIRAMIDE] ? 91

I would be grateful if you could share the reported Total Cell Count for Cn1cc(-c2[nH]c3cc(NC(=O)[C@H](N)C4CCCCC4)cc4c3c2C=NNC4=O)cn1 . 91

Endpoint output: Total Cell Count of COc1cc2nccc(Oc3ccc(NC(=O)Nc4cc(C)on4)c(Cl)c3)c2cc1OC.O . Value? 58

Which Total Cell Count value belongs to Cc1c(-c2ccc(O)cc2)n(Cc2ccc(OCCN3CCCCCC3)cc2)c2ccc(O)cc12 [BAZEDOXIFENE] ? 42

Give the measured Total Cell Count of OC1(c2ccc(Cl)cc2)CCN(Cc2c[nH]c3ccccc23)CC1 . 74

Bench note: what Total Cell Count did CN1CCN(CCOc2cc(OC3CCOCC3)c3c(Nc4c(Cl)ccc5c4OCO5)ncnc3c2)CC1 [SARACATINIB] show? 60

Given Cl.N#Cc1ccc2[nH]cc(CCCCN3CCN(c4ccc5oc(C(N)=O)cc5c4)CC3)c2c1 [VILAZODONE HYDROCHLORIDE] , state its recorded Total Cell Count. 72

Given the compound Cc1nc(-c2ccc(-c3ccc(C(=O)N4CCc5cc6c(cc54)C4(CCN(C)CC4)CO6)cc3)c(C)c2)no1 [SB-224289] , what is its reported Total Cell Count? 56
